Reference source: patent EP4725957A1

- test_name: Acute toxicity test in healthy mice, single tail vein injection
- Type: in vivo
- measurement_setup: mouse, in vivo, iv; ICR mice, single tail vein injection, Bliss method
Bridge positions count the residues as written; N and C are the ends. Square brackets hold non-standard residues; d marks the D form. Peptide text beside a SMILES is read from it. * marks the point of attachment. Heptanoyl(6-Me) = CC(C)CCCCC(=O)*; dDap = NC[C@@H](N)C(=O)O; Dab = NCC[C@H](N)C(=O)O; Dap = NC[C@H](N)C(=O)O
Would you kindly list LD50 at 168 h for each of these compounds?

# compound, LD50 at 168 h
measured = [
    ("CC(C)CCCCC(=O)N[C@@H](CCN)C(=O)N[C@H](C(=O)N[C@H](CN)C(=O)N[C@H]1CCNC(=O)[C@H]([C@@H](C)O)NC(=O)[C@H](CCN)NC(=O)[C@H](CCN)NC(=O)[C@H]([C@@H](C)O)NC(=O)[C@@H](Cc2ccccc2)NC(=O)[C@H](CCN)NC1=O)[C@@H](C)O [Compound 2] ({Heptanoyl(6-Me)}-[Dab]T[dDap][Dab][Dab][dF]T[Dab][Dab]T; lactam 4-C)", "22 mg/kg"),
]

With those in mind, consider the next compound.
INPUT: LD50 at 168 h lookup needed for CC(C)CCCCC(=O)N[C@@H](CCN)C(=O)N[C@H](C(=O)N[C@@H](CN)C(=O)N[C@H]1CCNC(=O)[C@H]([C@@H](C)O)NC(=O)[C@H](CCN)NC(=O)[C@H](CCN)NC(=O)[C@H]([C@@H](C)O)NC(=O)[C@@H](Cc2ccccc2)NC(=O)[C@H](CCN)NC1=O)[C@@H](C)O [Compound 7] ({Heptanoyl(6-Me)}-[Dab]T[Dap][Dab][Dab][dF]T[Dab][Dab]T; lactam 4-C) , thanks.
OUTPUT: 24.4 mg/kg
